Exercise: state measured IC50 for each of the compounds provided.
molecular target: nicotinic receptors containing the α7 subunit (Rattus norvegicus, UniProt Q05941); test: biochemical
Sequence (Q05941 23-502): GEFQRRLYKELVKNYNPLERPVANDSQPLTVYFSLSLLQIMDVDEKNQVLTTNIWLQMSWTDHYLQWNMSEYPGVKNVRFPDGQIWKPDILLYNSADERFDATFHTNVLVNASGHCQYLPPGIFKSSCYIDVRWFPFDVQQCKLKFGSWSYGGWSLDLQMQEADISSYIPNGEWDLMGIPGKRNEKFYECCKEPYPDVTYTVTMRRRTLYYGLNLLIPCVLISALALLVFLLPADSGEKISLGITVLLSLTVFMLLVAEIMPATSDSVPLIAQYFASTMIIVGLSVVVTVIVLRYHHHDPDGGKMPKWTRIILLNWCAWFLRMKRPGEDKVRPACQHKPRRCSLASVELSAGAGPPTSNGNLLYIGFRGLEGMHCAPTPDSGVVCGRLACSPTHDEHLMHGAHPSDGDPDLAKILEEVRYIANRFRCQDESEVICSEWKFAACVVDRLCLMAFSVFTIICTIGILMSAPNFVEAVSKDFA
Give bare numbers, in nM.

INSERT INTO assay_data (compound, data_value) VALUES
  ('O=C(c1n[nH]c2ccc(F)cc12)N1CCN2CCC1C2 (racemic) [Compound 4]', 55);

Lab note: next compound to report on.
**Query** Fill in: IC50 of Cc1ccc2c(C(=O)N3CCN4CCC3C4)n[nH]c2n1 (racemic) [Compound 1] is ___
**Result** 56
